Experiment: Phase I trial of oral PCLX-001: plasma pharmacokinetics, noncompartmental analysis (Phoenix WinNonlin 8.3)
Type: in vivo, human
Conditions: human, plasma, po, 70 mg, Table 8; Patient 115-002-008; Day 1; 70 mg QD oral; Pantoprazole Yes

| compound | Cmax (µg/mL) |
| --- | --- |
| Cc1c(NS(=O)(=O)c2c(Cl)cc(-c3ccnc(N4CCNCC4)c3)cc2Cl)c(CC(C)C)nn1C [PCLX-001] | 0.408 |

----------
Test: Phase I trial of oral PCLX-001: plasma pharmacokinetics, noncompartmental analysis (Phoenix WinNonlin 8.3)
Type: in vivo, human
Conditions: human, plasma, po, 40 mg, Table 7; Patient 115-009-001; Day 15; 40 mg QD oral; Pantoprazole No

| compound | AUC(0-inf) (ng·h/mL) |
| --- | --- |
| Cc1c(NS(=O)(=O)c2c(Cl)cc(-c3ccnc(N4CCNCC4)c3)cc2Cl)c(CC(C)C)nn1C | 18300 |

----------
Assay: Phase I trial of oral PCLX-001: plasma pharmacokinetics, noncompartmental analysis (Phoenix WinNonlin 8.3)
Type: in vivo, human
Conditions: human, plasma, po, 40 mg, Table 7; Patient 115-009-001; Day 15; 40 mg QD oral; Pantoprazole No
Source text: The clinical trial is entitled “Phase I Trial of PCLX-001 in B-cell Non-Hodgkin Lymphoma and Advanced Solid Malignancies” and registered at clinicaltrials.gov as NCT04836195. It is a phase I dose-escalation study of oral PCLX-001, conducted in a multicenter, non-randomized, open-label, non-controlled design. The study is comprised of two parts: Part A (single-agent dose escalation) and Part B (single-agent expansion cohorts). […]

| molecule | unit-of-measure | Cmax |
| --- | --- | --- |
| Cc1c(NS(=O)(=O)c2c(Cl)cc(-c3ccnc(N4CCNCC4)c3)cc2Cl)c(CC(C)C)nn1C [PCLX-001] | ng/mL | 1480 |

----------
Test: Phase I trial of oral PCLX-001: plasma pharmacokinetics, noncompartmental analysis (Phoenix WinNonlin 8.3)
Type: in vivo, human
Conditions: human, plasma, oral, 40 mg, Table 5; on Pantoprazole; 40 mg; N 1; Day 1
measurement-kind: Cmax (ng/mL)

| compound | measurement-kind | quantitative-readout |
| --- | --- | --- |
| Cc1c(NS(=O)(=O)c2c(Cl)cc(-c3ccnc(N4CCNCC4)c3)cc2Cl)c(CC(C)C)nn1C | Cmax | 868 |

----------
Assay: Phase I trial of oral PCLX-001: plasma pharmacokinetics, noncompartmental analysis (Phoenix WinNonlin 8.3)
Format: in vivo, human
Conditions: human, plasma, po, 20 mg, Table 1A; Patient 115-002-004 (Patient 3); Day 15; 20 mg oral daily; read-out: Half-life (converted)

| compound | half-life |
| --- | --- |
| Cc1c(NS(=O)(=O)c2c(Cl)cc(-c3ccnc(N4CCNCC4)c3)cc2Cl)c(CC(C)C)nn1C | 6.86 h |

----------
Assay: Phase I trial of oral PCLX-001: plasma pharmacokinetics, noncompartmental analysis (Phoenix WinNonlin 8.3)
Format: in vivo, human
Conditions: human, plasma, po, 70 mg, Table 8; Patient 115-002-007; Day 1; 70 mg QD oral; Pantoprazole Yes; read-out: AUClast or AUCtau
measurement-kind: AUC(0-t) (ng·h/mL)

| compound | quantitative-readout |
| --- | --- |
| Cc1c(NS(=O)(=O)c2c(Cl)cc(-c3ccnc(N4CCNCC4)c3)cc2Cl)c(CC(C)C)nn1C | 1960 |

----------
Test: Phase I trial of oral PCLX-001: plasma pharmacokinetics, noncompartmental analysis (Phoenix WinNonlin 8.3)
Assay type: in vivo, human
Conditions: human, plasma, po, 20 mg, Table 6; Patient 115-002-001; Day 1; 20 mg QD oral; Pantoprazole No; read-out: Half-life (converted)

| compound | unit-of-measure | half-life |
| --- | --- | --- |
| Cc1c(NS(=O)(=O)c2c(Cl)cc(-c3ccnc(N4CCNCC4)c3)cc2Cl)c(CC(C)C)nn1C | h | 8.34 |

----------
Experiment: Phase I trial of oral PCLX-001: plasma pharmacokinetics, noncompartmental analysis (Phoenix WinNonlin 8.3)
Type: in vivo, human
Conditions: human, plasma, po, 40 mg, Table 7; Patient 115-002-006; Day 1; 40 mg QD oral; Pantoprazole Yes; read-out: Tmax
Text: The clinical trial is entitled “Phase I Trial of PCLX-001 in B-cell Non-Hodgkin Lymphoma and Advanced Solid Malignancies” and registered at clinicaltrials.gov as NCT04836195. It is a phase I dose-escalation study of oral PCLX-001, conducted in a multicenter, non-randomized, open-label, non-controlled design. The study is comprised of two parts: Part A (single-agent dose escalation) and Part B (single-agent expansion cohorts). […]
measurement-kind: Tmax

| compound | result |
| --- | --- |
| Cc1c(NS(=O)(=O)c2c(Cl)cc(-c3ccnc(N4CCNCC4)c3)cc2Cl)c(CC(C)C)nn1C | 4 h |

----------
Assay: Phase I trial of oral PCLX-001: plasma pharmacokinetics, noncompartmental analysis (Phoenix WinNonlin 8.3)
Format: in vivo, human
Conditions: human, plasma, oral, 140 mg, Table 4; Mean; not on Pantoprazole; 140 mg; N 1; Day 15
measurement-kind: AUC(0-inf) (ng·h/mL)

| compound | measurement-kind | quantitative-readout |
| --- | --- | --- |
| Cc1c(NS(=O)(=O)c2c(Cl)cc(-c3ccnc(N4CCNCC4)c3)cc2Cl)c(CC(C)C)nn1C | AUC(0-inf) | 10700 |

----------
Test: Phase I trial of oral PCLX-001: plasma pharmacokinetics, noncompartmental analysis (Phoenix WinNonlin 8.3)
Format: in vivo, human
Settings: human, plasma, oral, 40 mg, Table 4; not on Pantoprazole; 40 mg; N 1; Day 1
measurement-kind: AUC(0-inf)

| compound | measurement-kind | result |
| --- | --- | --- |
| Cc1c(NS(=O)(=O)c2c(Cl)cc(-c3ccnc(N4CCNCC4)c3)cc2Cl)c(CC(C)C)nn1C | AUC(0-inf) | 12600 ng·h/mL |

----------
Assay: Phase I trial of oral PCLX-001: plasma pharmacokinetics, noncompartmental analysis (Phoenix WinNonlin 8.3)
Assay type: in vivo, human
Details: human, plasma, po, 140 mg, Table 10; Patient 115-024-005; Day 15; Dose 140 mg QD oral; Concomitant Pantoprazole Yes
measurement-kind: AUC(0-inf) (ng·h/mL)

| compound | quantitative-readout |
| --- | --- |
| Cc1c(NS(=O)(=O)c2c(Cl)cc(-c3ccnc(N4CCNCC4)c3)cc2Cl)c(CC(C)C)nn1C | 7180 |

----------
Assay: Phase I trial of oral PCLX-001: plasma pharmacokinetics, noncompartmental analysis (Phoenix WinNonlin 8.3)
Type: in vivo, human
Conditions: human, plasma, po, 70 mg, Table 8; Patient 115-002-007; Day 15; 70 mg QD oral; Pantoprazole Yes
measurement-kind: Cmax (ng/mL)

| compound | quantitative-readout |
| --- | --- |
| Cc1c(NS(=O)(=O)c2c(Cl)cc(-c3ccnc(N4CCNCC4)c3)cc2Cl)c(CC(C)C)nn1C | 602 |

----------
Experiment: Phase I trial of oral PCLX-001: plasma pharmacokinetics, noncompartmental analysis (Phoenix WinNonlin 8.3)
Type: in vivo, human
Details: human, plasma, po, 140 mg, Table 10; Patient 115-002-006; Day 15; Dose 140 mg QD oral; Concomitant Pantoprazole No; read-out: Tmax

| compound | Tmax (h) |
| --- | --- |
| Cc1c(NS(=O)(=O)c2c(Cl)cc(-c3ccnc(N4CCNCC4)c3)cc2Cl)c(CC(C)C)nn1C | 2 |

----------
Assay: Phase I trial of oral PCLX-001: plasma pharmacokinetics, noncompartmental analysis (Phoenix WinNonlin 8.3)
Assay type: in vivo, human
Details: human, plasma, po, 40 mg, Table 7; Patient 115-009-001; Day 1; 40 mg QD oral; Pantoprazole No; read-out: AUClast or AUCtau
measurement-kind: AUC(0-t) (ng·h/mL)

| compound | quantitative-readout |
| --- | --- |
| Cc1c(NS(=O)(=O)c2c(Cl)cc(-c3ccnc(N4CCNCC4)c3)cc2Cl)c(CC(C)C)nn1C [PCLX-001] | 10100 |

----------
Assay: Phase I trial of oral PCLX-001: plasma pharmacokinetics, noncompartmental analysis (Phoenix WinNonlin 8.3)
Assay type: in vivo, human
Settings: human, plasma, po, 100 mg, Table 9; Patient 115-002-010; Day 1; 100 mg QD oral; Pantoprazole No; read-out: AUClast or AUCtau

| compound | AUC(0-t) / ng·h/mL |
| --- | --- |
| Cc1c(NS(=O)(=O)c2c(Cl)cc(-c3ccnc(N4CCNCC4)c3)cc2Cl)c(CC(C)C)nn1C | 20000 |

----------
Test: Phase I trial of oral PCLX-001: plasma pharmacokinetics, noncompartmental analysis (Phoenix WinNonlin 8.3)
Type: in vivo, human
Settings: human, plasma, po, 70 mg, Table 8; Patient 115-024-001; Day 1; 70 mg QD oral; Pantoprazole No; read-out: Half-life (converted)

| compound | half-life, h |
| --- | --- |
| Cc1c(NS(=O)(=O)c2c(Cl)cc(-c3ccnc(N4CCNCC4)c3)cc2Cl)c(CC(C)C)nn1C [PCLX-001] | 9.44 |
